Listed molecules paired with reported DC50
- target.under.test: SHP2 protein (Homo sapiens, UniProt Q06124)
- Sequence (Q06124 1-593): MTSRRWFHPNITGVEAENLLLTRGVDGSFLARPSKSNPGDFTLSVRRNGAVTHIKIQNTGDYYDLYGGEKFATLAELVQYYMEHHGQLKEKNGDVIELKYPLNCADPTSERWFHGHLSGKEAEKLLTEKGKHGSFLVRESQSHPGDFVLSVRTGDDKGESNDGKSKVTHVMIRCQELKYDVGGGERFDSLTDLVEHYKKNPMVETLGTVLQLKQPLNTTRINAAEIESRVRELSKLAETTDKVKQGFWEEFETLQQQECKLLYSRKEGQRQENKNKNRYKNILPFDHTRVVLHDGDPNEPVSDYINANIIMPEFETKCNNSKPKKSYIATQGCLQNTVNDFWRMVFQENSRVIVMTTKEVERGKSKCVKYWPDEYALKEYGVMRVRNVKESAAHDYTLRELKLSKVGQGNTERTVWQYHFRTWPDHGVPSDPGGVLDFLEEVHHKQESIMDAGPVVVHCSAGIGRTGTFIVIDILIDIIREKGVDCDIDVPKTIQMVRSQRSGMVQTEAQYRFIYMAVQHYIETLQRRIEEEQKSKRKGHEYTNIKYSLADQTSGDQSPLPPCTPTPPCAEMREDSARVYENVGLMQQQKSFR
- run.description: Degradation activity on SHP2 protein in MIA Paca-2 cells (Western blot, DC50)
- Type: cell-based
- Parameters: endogenous in cells; host or cells: MIA Paca-2 cells
- condition.context: read-out: Degradation activity for differenct cell lines MIA Paca-2 (DC50)

molecule	DC50
Cc1ncsc1-c1ccc([C@H](C)NC(=O)[C@@H]2C[C@@H](O)CN2C(=O)[C@@H](NC(=O)CCCCCCCCN2CCN(C(=O)CCC(=O)Nc3cccc(Sc4ncc(N5CCC(C)(N)CC5)nc4N)c3Cl)CC2)C(C)(C)C)cc1 [Compound 999]	< 100 nM

For CC1(N)CCN(c2cnc(Sc3cccc(NC(=O)c4ccc(N5CCC(N6CC=C(c7ccc(C(=O)NCc8ccc9c(c8)CN(C8CCC(=O)NC8=O)C9=O)nc7)C(C)(C)C6)CC5)cc4)c3)cn2)CC1 (centres unmarked) [Compound 303] , what is its reported DC50? < 100 nM

----------
Listed compounds paired with reported DC50
- target.under.test: SHP2 protein (Homo sapiens, UniProt Q06124)
- run.description: Degradation activity on SHP2 protein in MIA Paca-2 cells (Western blot, DC50)
- Type: cell-based
- Set-up: endogenous in cells; host or cells: MIA Paca-2 cells
- condition.context: read-out: Degradation activity for differenct cell lines MIA Paca-2 (DC50)

Would you please look over these solved cases?
compound	DC50
CC1(N)CCN(c2cnc(Sc3cccc(NC(=O)c4ccc(N5CCC(N6CC=C(c7cnc(C(=O)NCc8ccc9c(c8)CN(C8CCC(=O)NC8=O)C9=O)c(Cl)c7)CC6)CC5)nc4)c3)cn2)CC1 (stereo not drawn)	100 to 1000 nM
COCC1(N)CCN(c2cnc(Sc3cccc(NC(=O)c4ccc(N5CCC(N6CC=C(c7ccc(C(=O)NCc8ccc9c(c8)CN(C8CCC(=O)NC8=O)C9=O)nn7)CC6)CC5)cc4)c3)cn2)CC1 (stereo not drawn)	> 1000 nM

Proceeding to the next compound to report its DC50.
Value wanted: DC50 (SHP2 protein (Homo sapiens, UniProt Q06124)) of entry CC1(N)CCN(c2cnc(Sc3cccc(NC(=O)C4CCC(N5CC=C(c6ccc(C(=O)NCc7ccc8c(c7)CN(C7CCC(=O)NC7=O)C8=O)nc6)CC5)CC4)c3)cn2)CC1 (single isomer, unassigned) [Compound 301] > 1000 nM

----------
Listed molecules paired with reported DC50
- target.under.test: SHP2 protein (Homo sapiens, UniProt Q06124)
- run.description: Degradation activity on SHP2 protein in MIA Paca-2 cells (Western blot, DC50)
- Assay type: cell-based
- Design: endogenous in cells; host or cells: MIA Paca-2 cells
- condition.context: read-out: Degradation activity for differenct cell lines MIA Paca-2 (DC50)

For C[C@@H]1OCC2(CCN(c3cnc(Sc4cccc(NC(=O)C5CC56CCN(c5ccc(CN7CCN(c8ccc9c(c8)CN(C8CCC(=O)NC8=O)C9=O)CC7)cc5F)CC6)c4)cn3)CC2)[C@@H]1N (stereo partly shown) , what is its reported DC50? > 1000 nM

Cool, now CC1(N)CCN(c2cnc(Sc3cccc(NC(=O)C4CC(N5CCC(N6CC=C(c7ccc(C(=O)NCc8ccc9c(c8)CN(C8CCC(=O)NC8=O)C9=O)nn7)CC6)CC5)C4)c3)cn2)CC1 (stereo not shown) < 100 nM

Cool, now CC1(N)CCN(c2cnc(Sc3cccc(NC(=O)CCCCCCCCN4CCN(c5ccc(C(=O)NCc6ccc7c(c6)CN(C6CCC(=O)NC6=O)C7=O)nn5)CC4)c3)cn2)CC1 (stereo not shown) < 100 nM

Cool, now CC1(N)CCN(c2cnc(Sc3cccc(NC(=O)c4ccc(N5CCC(N6CC=C(c7ccc(C(=O)Nc8ccc9c(c8)CN(C8CCC(=O)NC8=O)C9=O)nc7)CC6)CC5)cc4)c3)cn2)CC1 (stereo not shown) < 100 nM

Cool, now C[C@@H]1OCC2(CCN(c3cnc(Sc4cccc(NC(=O)c5ccc(N6CCC(N7CC=C(c8ccc(C(=O)NCc9ccc%10c(c9)CN(C9CCC(=O)NC9=O)C%10=O)nc8)CC7)CC6)c(F)c5)c4)cn3)CC2)[C@@H]1N (stereo partly shown) < 100 nM

Cool, now CC1(N)CCN(c2cnc(Sc3cccc(NC(=O)CCCCCCN4CC5(CCN(c6ccc(C(=O)NCc7ccc8c(c7)CN(C7CCC(=O)NC7=O)C8=O)cn6)C5)C4)c3)cn2)CC1 (stereo not shown) < 100 nM

Cool, now C[C@@H]1OCC2(CCN(c3cnc(Sc4cccc(NC(=O)CCN5CC=C(c6ccc(C(=O)N7CCN(c8ccc9c(c8)CN(C8CCC(=O)NC8=O)C9=O)CC7)nc6)C(C)(C)C5)c4)cn3)CC2)[C@@H]1N (stereo partly shown) > 1000 nM

Cool, now Cc1cc(C2=CCN(C3CCN(c4ccc(C(=O)Nc5cccc(Sc6cnc(N7CCC8(CC7)CO[C@@H](C)[C@H]8N)cn6)c5)cc4F)CC3)CC2)cnc1C(=O)NCc1ccc2c(c1)CN(C1CCC(=O)NC1=O)C2=O (stereo partly shown) > 1000 nM

Cool, now CC1(N)CCN(c2cnc(Sc3cccc(NC(=O)CCCCCCCCCCNc4ccc(C(=O)NCc5ccc6c(c5)CN(C5CCC(=O)NC5=O)C6=O)nn4)c3)cn2)CC1 (stereo not shown) 100 to 1000 nM

----------
- target.under.test: UniProt:Q06124
- Sequence (Q06124 1-593): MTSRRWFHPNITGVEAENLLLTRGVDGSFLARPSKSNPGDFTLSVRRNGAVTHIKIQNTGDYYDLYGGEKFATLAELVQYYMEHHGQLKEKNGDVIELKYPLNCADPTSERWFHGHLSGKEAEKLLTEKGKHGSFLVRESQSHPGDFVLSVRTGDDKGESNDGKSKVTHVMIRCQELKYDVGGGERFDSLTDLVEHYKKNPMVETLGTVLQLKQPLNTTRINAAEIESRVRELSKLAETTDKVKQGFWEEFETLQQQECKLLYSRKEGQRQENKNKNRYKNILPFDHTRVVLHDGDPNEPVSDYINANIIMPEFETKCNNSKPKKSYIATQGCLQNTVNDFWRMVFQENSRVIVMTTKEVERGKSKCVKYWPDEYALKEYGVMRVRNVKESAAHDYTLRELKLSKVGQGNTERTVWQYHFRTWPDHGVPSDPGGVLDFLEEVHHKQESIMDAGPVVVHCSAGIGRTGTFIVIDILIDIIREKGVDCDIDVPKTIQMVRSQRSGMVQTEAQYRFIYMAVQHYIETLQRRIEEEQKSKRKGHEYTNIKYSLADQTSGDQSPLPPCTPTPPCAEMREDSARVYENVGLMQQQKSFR
- run.description: Degradation activity on SHP2 protein in MIA Paca-2 cells (Western blot, DC50)
- Type: cell-based
- Parameters: endogenous in cells; host or cells: MIA Paca-2 cells
- condition.context: read-out: Degradation activity for differenct cell lines MIA Paca-2 (DC50)
- Description: (1) MV-411 cells were cultured in the cell culture medium, and then well-growing cells were selected and inoculated in a 12-well plate, with 1 mL/well and 1×10^6 cells/well. The plate was incubated overnight in a 5% CO2 cell incubator at 37° C. (2) 10 mM storage solution of each drug was prepared using dimethylsulfoxide (DMSO). […] (3) After 24 hours of cultivation, the cells were lysed using RIPA cell lysate, and the proteins were extracted. The protein concentration was measured using a BCA assay kit. […]
Listed compounds paired with reported DC50

Would you please look over these solved cases?
compound	target.under.test	DC50
CC1(N)CCN(c2cnc(Sc3cccc(NC(=O)c4ccc(N5CCC(N6CCN(c7ccc8c(c7)C(=O)N(C7CCC(=O)NC7=O)C8=O)CC6)CC5)c(F)c4)c3)cn2)CC1 (stereo not shown) [Compound 277]	UniProt:Q06124	> 1 µM
CC1(N)CCN(c2cnc(Sc3cccc(NC(=O)c4ccc(N5CCC(N6CCN(c7ccc(C(=O)NCc8ccc9c(c8)CN(C8CCC(=O)NC8=O)C9=O)cc7F)CC6)CC5)c(F)c4)c3)cn2)CC1 (stereo not shown) [Compound 499]	UniProt:Q06124	< 0.1 µM
CC1(N)CCN(c2cnc(Sc3cccc(NCc4ccc(N5CCN(c6ccc(C(=O)NCc7ccc8c(c7)C(=O)N(C7CCC(=O)NC7=O)C8)nn6)CC5)c(F)c4)c3)cn2)CC1 (stereo not shown) [Compound 258]	UniProt:Q06124	> 1 µM
C[C@@H]1OCC2(CCN(c3cnc(Sc4cccc(NC(=O)C5CCC(N6CC=C(c7ccc(C(=O)NCc8ccc9c(c8)CN(C8CCC(=O)NC8=O)C9=O)nc7)CC6)CC5)c4)cn3)CC2)[C@@H]1N (stereo partly shown) [Compound 474]	UniProt:Q06124	< 0.1 µM
C[C@@H]1OCC2(CCN(c3cnc(Sc4cccc(NC(=O)c5ccc(N6CCC(N7CCN(c8ccc(C(=O)NCc9ccc%10c(c9)CN(C9CCC(=O)NC9=O)C%10=O)c(F)c8)CC7)CC6)cc5)c4)cn3)CC2)[C@@H]1N (stereo partly shown) [Compound 500]	UniProt:Q06124	> 1 µM
CC1(N)CCN(c2cnc(Sc3cccc(NC(=O)C4CC(N5CC=C(c6ccc(C(=O)NCc7ccc8c(c7)C(=O)N(C7CCC(=O)NC7=O)C8)nc6)CC5)C4)c3)cn2)CC1 (stereo not shown) [Compound 302]	UniProt:Q06124	> 1 µM
CC1(N)CCN(c2cnc(Sc3cccc(NC(=O)C4CC45CCC(N4CC=C(c6ccc(C(=O)NCc7ccc8c(c7)CN(C7CCC(=O)NC7=O)C8=O)nc6)CC4)CC5)c3)cn2)CC1 (single isomer, unassigned) [Compound 314]	UniProt:Q06124	> 1 µM
CC1(N)CCN(c2cnc(Sc3cccc(NC(=O)CCCCCCN4CC5(CCC(c6ccc(C(=O)NCc7ccc8c(c7)CN(C7CCC(=O)NC7=O)C8=O)nc6)CC5)C4)c3)cn2)CC1 (stereo not shown) [Compound 216]	UniProt:Q06124	< 0.1 µM

Value wanted: DC50 (UniProt:Q06124) of entry CC1(N)CCN(c2cnc(Sc3cccc(NC(=O)c4ccc(C5=CCC(N6CC=C(c7ccc(C(=O)NCc8ccc9c(c8)CN(C8CCC(=O)NC8=O)C9=O)nn7)CC6)CC5)cc4)c3)cn2)CC1 (stereo not shown) [Compound 368] < 0.1 µM

Cool, now CC1(N)CCN(c2cnc(Sc3cccc(N4CCC(CN5CCN(c6ccc7c(c6)CN(C6CCC(=O)NC6=O)C7=O)CC5)CC4)c3)cn2)CC1 (stereo not shown) [Compound 341] > 1 µM

Taken from patent US20240383908A1.
